Molecular target: human recombinant GABAAR containing α5β3γ2 subunits (benzodiazepine site) (Homo sapiens, UniProt P18507+P31644)
Construct: expressed in transfected cells; host or cells: mouse L(tk−) cells, dexamethasone-inducible vector pMSGneo
Sequence (P31644 32-462): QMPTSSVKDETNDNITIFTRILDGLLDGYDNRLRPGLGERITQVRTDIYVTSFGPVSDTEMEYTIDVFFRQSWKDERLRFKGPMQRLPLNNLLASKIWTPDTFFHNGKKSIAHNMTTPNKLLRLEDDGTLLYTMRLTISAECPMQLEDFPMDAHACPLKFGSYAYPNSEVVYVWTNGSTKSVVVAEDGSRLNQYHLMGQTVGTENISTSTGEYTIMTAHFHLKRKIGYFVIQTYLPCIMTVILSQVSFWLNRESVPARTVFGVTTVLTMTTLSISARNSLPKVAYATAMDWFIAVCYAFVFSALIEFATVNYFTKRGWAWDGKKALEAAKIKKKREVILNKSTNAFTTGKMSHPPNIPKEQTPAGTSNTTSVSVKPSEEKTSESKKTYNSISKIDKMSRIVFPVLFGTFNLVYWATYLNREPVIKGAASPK
Sequence (P28472 26-473 partner): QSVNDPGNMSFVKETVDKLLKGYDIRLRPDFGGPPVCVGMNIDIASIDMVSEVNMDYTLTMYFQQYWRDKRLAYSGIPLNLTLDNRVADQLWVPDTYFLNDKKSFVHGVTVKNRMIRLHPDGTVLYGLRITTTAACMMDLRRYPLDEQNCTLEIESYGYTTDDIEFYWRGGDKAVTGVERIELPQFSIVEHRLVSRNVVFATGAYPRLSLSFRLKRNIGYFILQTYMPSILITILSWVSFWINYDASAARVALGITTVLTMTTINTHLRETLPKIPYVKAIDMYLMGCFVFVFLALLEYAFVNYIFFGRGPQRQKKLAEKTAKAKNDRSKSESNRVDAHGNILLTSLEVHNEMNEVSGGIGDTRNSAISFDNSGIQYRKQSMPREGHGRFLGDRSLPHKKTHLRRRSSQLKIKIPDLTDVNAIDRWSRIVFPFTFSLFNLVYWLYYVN
Sequence (P18507 40-475): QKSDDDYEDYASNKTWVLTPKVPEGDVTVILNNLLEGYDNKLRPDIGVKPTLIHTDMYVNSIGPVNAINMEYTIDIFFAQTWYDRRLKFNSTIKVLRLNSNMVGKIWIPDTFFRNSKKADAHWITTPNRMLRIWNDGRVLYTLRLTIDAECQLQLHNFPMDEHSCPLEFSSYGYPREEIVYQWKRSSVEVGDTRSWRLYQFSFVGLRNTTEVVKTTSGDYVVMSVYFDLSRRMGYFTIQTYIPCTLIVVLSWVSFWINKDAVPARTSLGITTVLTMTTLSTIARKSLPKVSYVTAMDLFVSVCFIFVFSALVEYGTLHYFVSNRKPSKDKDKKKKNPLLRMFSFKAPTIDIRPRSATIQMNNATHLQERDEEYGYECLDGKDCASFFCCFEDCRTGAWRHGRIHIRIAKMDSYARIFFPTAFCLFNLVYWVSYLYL
Assay: In vitro radioligand binding assay (α5-GABAAR Ki)
Conditions: inhibition of [3H]Ro15-1788 binding, membranes of L(tk−) cells expressing human α5β3γ2; read-out: α5-GABAAR Ki
Mark condition met only when Ki stays strictly below 4 nM. Values equal to the cut-off are condition not met.

Asked: Given Cc1onc(-c2ccc(F)cc2)c1C(=O)Nc1ccc(-c2cnc3n2CCNC3)nc1OC(C)C.Cl [Example 208, hydrochloride] , is recorded Ki strictly lower than 4 nM?
Given back: condition met

Asked: Try COc1nc(-c2ccc(N)nc2)ccc1NC(=O)c1c(-c2ccccc2)noc1C next.
Given back: condition met

Asked: Try COc1nc(-c2ccc(CN3CCOCC3)cc2)ccc1NC(=O)c1c(-c2ccccc2)noc1C next.
Given back: condition not met

Asked: Try COc1cc(-c2cncnc2)ccc1NC(=O)c1c(-c2ccccc2)noc1C next.
Given back: condition met

Asked: Try COc1nc(-c2cnc3n2CCN(C)C3)ccc1NC(=O)c1c(-c2ccccc2)noc1C next.
Given back: condition met

Asked: Try CNCCNc1ncc(-c2ccc(NC(=O)c3c(-c4ccccc4)noc3C)c(OC)n2)cn1.Cl [Example 170, hydrochloride] next.
Given back: condition met

Asked: Try COc1nc(-c2cnoc2)ccc1NC(=O)c1c(C)nnn1-c1ccccc1 next.
Given back: condition not met

Asked: Try COc1nc(-c2cnc(N(C)C)c(Cl)c2)ccc1NC(=O)c1c(-c2ccccc2)noc1C next.
Given back: condition not met

Asked: Try Cc1onc(-c2ccc(F)cc2)c1C(=O)Nc1ccc(-c2cnc(N)nc2)nc1OC1COC1 next.
Given back: condition met

Asked: Try COc1nc(-c2ccc(CN3CC4COCC(C4)C3)nc2)ccc1NC(=O)c1c(-c2ccccc2)noc1C next.
Given back: condition met

Asked: Try COc1nc(-c2ccc(NC(C)=O)nc2)cnc1NC(=O)c1c(-c2ccccc2)noc1C next.
Given back: condition met

Asked: Try COc1nc(-c2cnc(CN(C)C)nc2)ccc1NC(=O)c1c(C)nnn1-c1ccccc1 next.
Given back: condition not met

Asked: Try COCc1ncc(-c2ccc(NC(=O)c3c(-c4ccccc4)noc3C)c(OC)n2)cn1 next.
Given back: condition met

Asked: Try COc1nc(-n2ccnc2)ccc1NC(=O)c1c(-c2ccccc2)nnn1C next.
Given back: condition not met

Asked: Try COc1nc(-c2cccnc2)ccc1NC(=O)c1c(-c2ccccc2)noc1C next.
Given back: condition met
